From: PubChem BioAssay AID722

- system: fMet-Leu-Phe receptor (Homo sapiens) (UniProt P21462)
- Sequence (P21462 whole entry, looked up): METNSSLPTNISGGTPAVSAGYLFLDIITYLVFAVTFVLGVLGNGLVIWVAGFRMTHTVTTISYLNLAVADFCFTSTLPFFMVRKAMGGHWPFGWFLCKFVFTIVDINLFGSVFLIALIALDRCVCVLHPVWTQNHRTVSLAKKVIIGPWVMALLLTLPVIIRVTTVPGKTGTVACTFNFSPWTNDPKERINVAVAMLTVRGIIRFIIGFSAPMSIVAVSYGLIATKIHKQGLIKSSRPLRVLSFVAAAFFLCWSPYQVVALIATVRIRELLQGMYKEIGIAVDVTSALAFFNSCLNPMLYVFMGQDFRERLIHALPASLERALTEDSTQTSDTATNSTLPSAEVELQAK
- test description: human FPR1 ligand displacement screen – cell-based, flow cytometry, SAR analysis, primary screen (AID 722)
- measurement setup: FPR-expressing cells, fluorescent ligand binding inhibition, concentration not given here
Out of some 1,300 compounds screened, about 40 (3%) were called active. Rule as the data show it: active = inhibition above about 30%; inactive = the rest. The entries come from a sample that favours actives as a whole.
Assign a class; possible classes are active, inactive

Here's what some known entries look like.
compound: O=C1C(=O)N(c2nncs2)C(c2ccc(F)cc2)/C1=C(\O)c1ccccc1 (stereo unspecified)
class label: inactive
--
compound: COc1cc(C2C(C(=O)c3cc4ccccc4o3)=C(O)C(=O)N2CCN(C)C)cc(OC)c1OC (stereo unspecified)
class label: inactive
--
compound: O=C(NC(c1nnc(-c2ccccc2)o1)c1ccccc1F)c1ccc(F)cc1 (stereo unspecified)
class label: inactive
--
compound: COc1ccc(C2NC(=O)C(=O)/C2=C(\O)c2ccc(Cl)cc2)cc1 (stereo unspecified)
class label: inactive
--
compound: COc1ccc(OC)c(C2/C(=C(\O)c3ccccc3)C(=O)C(=O)N2c2nc3ccccc3s2)c1 (stereo unspecified)
class label: inactive

Ask | What outcome does the record of this test show for CCOC(=O)c1c(NC(=O)c2ccc(F)cc2)sc(C)c1C ?
Reply | inactive

Ask | And for COc1cc(C2C(C(=O)c3cc4ccccc4o3)=C(O)C(=O)N2CCN(C)C)ccc1O (stereo unspecified) ?
Reply | active

Ask | Now try CCSC1=C(C#N)C(c2ccc3c(c2)OCO3)CC(=O)N1 (stereo unspecified) .
Reply | inactive

* * *

Kindly state inhibition for each of the entries shown.
- system: fMet-Leu-Phe receptor (Homo sapiens)
- test description: human FPR1 ligand displacement screen – cell-based, flow cytometry, SAR analysis, primary screen (AID 722)
- measurement setup: FPR-expressing cells, fluorescent ligand binding inhibition, hits give high values, concentration not given here
About 40 (3%) of roughly 1,300 compounds were called active. The entries come from a sample that favours actives as a whole.
One number for each entry, in %.

Consider the following illustrative entries.
compound: O=C1C(=O)N(Cc2cccnc2)C(c2ccc(Br)cc2)/C1=C(\O)c1ccc(F)cc1 (stereo unspecified)
numeric readout: -5.5
//
compound: CCOC(=O)C1NN=C(C(=O)c2ccccc2)C1c1ccccc1 (stereo unspecified)
numeric readout: -1
//
compound: CCOC(=O)c1c(NC(=O)c2ccco2)sc2c1CCC(C)C2 (stereo unspecified)
numeric readout: -0.4
//
compound: COc1ccc(C2/C(=C(\O)c3ccccc3)C(=O)C(=O)N2CCN2CCOCC2)c(OC)c1 (stereo unspecified)
numeric readout: 17
//
compound: COc1ccc(Oc2c(C(F)(F)F)oc3cc(OC(=O)c4c(OC)cccc4OC)ccc3c2=O)cc1
numeric readout: 2.9
//
compound: Cc1nnc(N2C(=O)C(=O)/C(=C(/O)c3ccc(F)cc3)C2c2cccc(Oc3ccccc3)c2)s1 (stereo unspecified)
numeric readout: -8.8
//
compound: COc1cccc(OC)c1C(=O)Oc1ccc2c(=O)c(-c3ccc(Cl)cc3)c(C(F)(F)F)oc2c1
numeric readout: 4.7
//
compound: O=c1c2cccnc2n(Cc2ccccc2F)c(=O)n1Cc1cccs1
numeric readout: -0.6
//
compound: O=C1C(=O)N(CCO)C(c2cccc(F)c2)/C1=C(/O)c1ccccc1 (stereo unspecified)
numeric readout: -7.5
//
compound: O=C(Oc1ccc2c(=O)c(Oc3ccccc3Cl)c(C(F)(F)F)oc2c1)c1cccs1
numeric readout: -8.1

Below are 4 compounds. Give each one its inhibition.
1. CCOC(=O)c1cc(C)sc1NC(=O)c1ccc(OC)cc1
2. CCOC(=O)c1cc2ccccc2n1CC(=O)c1ccccc1
3. CCOC(=O)c1c(NC(=O)c2ccc(Cl)cc2)sc(C)c1C
4. O=c1c2cccnc2n(Cc2ccccc2F)c(=O)n1Cc1ccccc1

Reply |
[-6.6, -0.2, -1, -7.5]

Report inhibition for each item below.
1. CCOc1ccccc1C1CC(=O)NC2=C1C(=O)CC(c1ccccc1Cl)C2 (stereo unspecified)
2. COc1cccc(N(Cc2nnc3n2CCCCC3)C(=O)Nc2ccccc2)c1
3. COc1ccc(C2/C(=C(\O)c3ccc(F)cc3)C(=O)C(=O)N2c2nnc(C)s2)cc1 (stereo unspecified)
4. O=C(Oc1ccc2c(=O)c(-c3ccccc3Cl)c(C(F)(F)F)oc2c1)c1cccs1
5. Cc1onc(-c2c(Cl)cccc2Cl)c1C(=O)N1CCC(C)CC1
6. CCOC(=O)c1c(NC(=O)c2cc(C)no2)sc(C)c1C
7. COc1ccccc1-c1c(C(F)(F)F)oc2cc(OC(=O)N3CCOCC3)ccc2c1=O

Reply |
1: -7.2; 2: -7.8; 3: 4.6; 4: 70; 5: 5.9; 6: 2.2; 7: 9.4
